Tested on: PP1c/PP2Ac
Test: PP1c versus PP2Ac specificity of p-sites (pairwise comparison / hierarchical clustering of phosphoproteomic data)
Format: biochemical, human
Conditions: p-site significantly decreased exclusively by PP1c or PP2Ac; 1 µM phosphatase, HeLa Kyoto lysate, 1 h, 30 °C
Protocol: For phosphoproteomics, HeLa Kyoto cells were incubated with 20 nM Calyculin A (CST, #9902) for 10–15 min. This time point was determined empirically to yield maximal phosphatase inhibition without cells showing pleiotropic effects. […] Protein concentration was then determined by a Bradford Assay and equal amounts of 1 mg total protein were incubated with recombinant PP1c/PP2Ac or buffer at a final phosphatase concentration of 1 µM in a total volume of 200 µL for 1 h at 30 °C. […]
measurementLabel: Sensitivity (phosphatase exclusively dephosphorylating the p-site)

Suppose we examine the substance NIFSRGANRMRGRLGSVDSFERSNSLASEKD [TBC1D4 588] ; what Sensitivity (phosphatase exclusively dephosphorylating the p-site) value has been reported?
PP1c

Suppose we examine the substance LHQCISRRAENARSASFSQGTRASFLMRSDT [GAB2 210] ; what Sensitivity (phosphatase exclusively dephosphorylating the p-site) value has been reported?
PP1c

Suppose we examine the substance SRSF5 233: S/R-rich splicing factor p-site, window RSVSRSPVPEK ; what Sensitivity (phosphatase exclusively dephosphorylating the p-site) value has been reported?
PP1c

Suppose we examine the substance SRSF8 158: S/R-rich splicing factor p-site, window SRYSRSPYSRS ; what Sensitivity (phosphatase exclusively dephosphorylating the p-site) value has been reported?
PP1c

More entries:
Suppose we examine the substance ISPTIVQQFGYQRRASDDGKLTDPSKTSNTI [RAF1 43] ; what Sensitivity (phosphatase exclusively dephosphorylating the p-site) value has been reported?
PP1c

Suppose we examine the substance SRSF2 189: S/R-rich splicing factor p-site, window RSRSRSRSPPP ; what Sensitivity (phosphatase exclusively dephosphorylating the p-site) value has been reported?
PP1c

Suppose we examine the substance SPPPVSKRESKSRSRSKSPPKSPEEEGAVSS [SRSF2 206] ; what Sensitivity (phosphatase exclusively dephosphorylating the p-site) value has been reported?
PP1c

Suppose we examine the substance SRSF2 191: S/R-rich splicing factor p-site, window RSRSRSPPPVS ; what Sensitivity (phosphatase exclusively dephosphorylating the p-site) value has been reported?
PP1c

Suppose we examine the substance HPPRKISTEDINKRLSLPADIRLPEGYLEKL [CDK16 119] ; what Sensitivity (phosphatase exclusively dephosphorylating the p-site) value has been reported?
PP1c

Suppose we examine the substance HSF1 303: 14-3-3 interaction site, window KEEPPSPPQSP ; what Sensitivity (phosphatase exclusively dephosphorylating the p-site) value has been reported?
PP2Ac

---

System: GFP-14-3-3β and its binding proteins
Assay: GFP-14-3-3β co-IP with LC-MS/MS label-free quantification, untreated versus PP1c-treated
Parameters: species or system human
Conditions: PP1 vs untreated; LFQ intensities, replicates 1-3
Below, each entry is listed alongside its reported Difference (log2), PP1 vs untreated.
# do not omit the unit; it follows the number

Suppose we examine the substance `RICTOR` ; what Difference (log2), PP1 vs untreated value has been reported?
-0.7631 log2

More entries:
Suppose we examine the substance `ARHGEF5` ; what Difference (log2), PP1 vs untreated value has been reported?
-1.778 log2

Suppose we examine the substance `KHDRBS1` ; what Difference (log2), PP1 vs untreated value has been reported?
-0.7597 log2

Suppose we examine the substance `SMARCA5` ; what Difference (log2), PP1 vs untreated value has been reported?
-1.929 log2

---

System: PP1c/PP2Ac
Assay: PP1c versus PP2Ac specificity of p-sites (pairwise comparison / hierarchical clustering of phosphoproteomic data)
Format: biochemical, human
Settings: p-site significantly decreased exclusively by PP1c or PP2Ac; 1 µM phosphatase, HeLa Kyoto lysate, 1 h, 30 °C
measurementLabel: Sensitivity (phosphatase exclusively dephosphorylating the p-site)

Suppose we examine the substance HSF1 307: 14-3-3 interaction site, window PSPPQSPRVEE ; what Sensitivity (phosphatase exclusively dephosphorylating the p-site) value has been reported?
PP2Ac

Suppose we examine the substance USP8 718: 14-3-3 interaction site, window LKRSYSSPDIT ; what Sensitivity (phosphatase exclusively dephosphorylating the p-site) value has been reported?
PP1c

Suppose we examine the substance KRKSKSRSRSKRPPKSPEEEGQMSS______ [SRSF8 273] ; what Sensitivity (phosphatase exclusively dephosphorylating the p-site) value has been reported?
PP1c

Suppose we examine the substance SRSF8 163: S/R-rich splicing factor p-site, window SPYSRSPYSRS ; what Sensitivity (phosphatase exclusively dephosphorylating the p-site) value has been reported?
PP1c

---

Tested on: PP1c/PP2Ac
Experiment: PP1c versus PP2Ac specificity of p-sites (pairwise comparison / hierarchical clustering of phosphoproteomic data)
Format: biochemical, human
Details: p-site significantly decreased exclusively by PP1c or PP2Ac; 1 µM phosphatase, HeLa Kyoto lysate, 1 h, 30 °C
Method: For phosphoproteomics, HeLa Kyoto cells were incubated with 20 nM Calyculin A (CST, #9902) for 10–15 min. This time point was determined empirically to yield maximal phosphatase inhibition without cells showing pleiotropic effects. […] Protein concentration was then determined by a Bradford Assay and equal amounts of 1 mg total protein were incubated with recombinant PP1c/PP2Ac or buffer at a final phosphatase concentration of 1 µM in a total volume of 200 µL for 1 h at 30 °C. […]
measurementLabel: Sensitivity (phosphatase exclusively dephosphorylating the p-site)

Suppose we examine the substance SRSF4/5/6 113;117;119: S/R-rich splicing factor p-site, window VENLSSRCSWQ ; what Sensitivity (phosphatase exclusively dephosphorylating the p-site) value has been reported?
PP2Ac

Suppose we examine the substance SRSF5 231: S/R-rich splicing factor p-site, window KSRSVSRSPVP ; what Sensitivity (phosphatase exclusively dephosphorylating the p-site) value has been reported?
PP1c

Suppose we examine the substance KGDIKSKSRSRSQSRSNSPLPVPPSKARSVS [SRSF6 301] ; what Sensitivity (phosphatase exclusively dephosphorylating the p-site) value has been reported?
PP1c

Suppose we examine the substance SRSF7 192: S/R-rich splicing factor p-site, window SRYFQSPSRSR ; what Sensitivity (phosphatase exclusively dephosphorylating the p-site) value has been reported?
PP1c

Suppose we examine the substance SRSF10 133: S/R-rich splicing factor p-site, window RSRSRSFDYNY ; what Sensitivity (phosphatase exclusively dephosphorylating the p-site) value has been reported?
PP1c

Suppose we examine the substance SRSF1 199: S/R-rich splicing factor p-site, window VDGPRSPSYGR ; what Sensitivity (phosphatase exclusively dephosphorylating the p-site) value has been reported?
PP1c

More entries:
Suppose we examine the substance YAP1 127: 14-3-3 interaction site, window VRAHSSPASLQ ; what Sensitivity (phosphatase exclusively dephosphorylating the p-site) value has been reported?
PP2Ac

Suppose we examine the substance SRSF11 207: S/R-rich splicing factor p-site, window AAGLVSPSLKS ; what Sensitivity (phosphatase exclusively dephosphorylating the p-site) value has been reported?
PP2Ac

Suppose we examine the substance EVPVPPPVPPRRRPESAPAESSPSKIMSKHL [SOS1 1161] ; what Sensitivity (phosphatase exclusively dephosphorylating the p-site) value has been reported?
PP1c

---

Tested on: GFP-14-3-3β
Assay: GFP-14-3-3β co-IP with LC-MS/MS, untreated GFP-14-3-3β versus GFP control (14-3-3 interactome)
Format: binding, human
Conditions: untreated vs GFP; LFQ intensities, replicates 1-3
measurementLabel: Difference (log2), untreated vs GFP
# output: bare number, implied unit log2

Give recorded Difference (log2), untreated vs GFP with GFP-14-3-3β for the following substance: `KHDRBS1`
-0.7979

More entries:
Give recorded Difference (log2), untreated vs GFP with GFP-14-3-3β for the following substance: `RICTOR`
3.3487

Give recorded Difference (log2), untreated vs GFP with GFP-14-3-3β for the following substance: `SMARCA5`
3.229

Give recorded Difference (log2), untreated vs GFP with GFP-14-3-3β for the following substance: `ARHGEF5`
3.791
